Value source: the supplement of paper PMC12764529

Experiment: folding stability dG unfold (combined trypsin and chymotrypsin); higher = more stable
PARAMETER: folding stability dG unfold (kcal/mol)
Write down the numeric answer in kcal/mol and omit the unit.

Below, 5 sequences whose answers are already recorded.
POLYMER_SEQUENCE: SAGGSAGGSAGGMTVTVTVPPEKVEETIKKLGSKAKSVEREVLETPLGEKVAVVTVTLENSAGGSAGGSAGG [r7_904_JUSTAS]
folding stability dG unfold / kcal/mol: 0.047
--
POLYMER_SEQUENCE: SAGGRRPVTAEEAADRLMKELGIPGLKNIKDVTMEYEVYDPDGKPWSRVDITIKIKMPPEQRDRLKKLSAGG [r13_552_TrROS]
folding stability dG unfold / kcal/mol: 0.51
--
POLYMER_SEQUENCE: SAGMVVRITVLPEGEEREFVVAATPEEARELLEELGYEVEEFPELPVLVARRPDAVVLVEFIPVAPDALSAG [r5_248_TrMRF]
folding stability dG unfold / kcal/mol: 1.83
--
POLYMER_SEQUENCE: SAGGSALRIPPGEKIKVRNPDNGKPFEFKVTNWQMNPNGNAYFQVEMTSDGKKVKWPIPLDDIEVVSAGGSA [r15_62_TrROS]
folding stability dG unfold / kcal/mol: 0.0757
--
POLYMER_SEQUENCE: SAGGSAGGSKIKILFDPNMTLEEAIELAEKLTKEFDAEVELEIIPKPKPKPLPVIDPENPKLLSAGGSAGGS [r12_159_TrMRF]
folding stability dG unfold / kcal/mol: -0.72

Here is another sequence to look at.
Please look at this sequence and report its folding stability dG unfold: SAGGLKELLEALKEGNLEEALEALKKLGIEEVKIEIKPVVRVVITVEVPKEKVKVKVEVRVFLPEEELSAGG [r13_359_TrROS_Hall]
1.71

----------
Test: folding stability dG unfold (combined trypsin and chymotrypsin); higher = more stable
Short version: folding stability dG unfold at least 5 kJ/mol is YES, less is NO.

Kindly determine if folding stability dG unfold recorded for SNPNEPLTAEEIAKHIEEFMQEEHGIDKIKPEEFTVNPPDGYIKVEMEIEHKNPPGQKHKIDIWIPPDDLSA [r9_1002_TrROS] is above or exactly 5 kJ/mol.
NO

Kindly determine if folding stability dG unfold recorded for SAGGSAGGSDTPTINIPPGMGNPEQAIEQLKEIREHFPPGKKISISAPGGWKPELKEAGLITVSAGGSAGGS [r12_992_TrROS] is above or exactly 5 kJ/mol.
NO

Kindly determine if folding stability dG unfold recorded for SAGGASVPVEPRLDASGRERVRATLEIRPTLPNGTRTSRAVPVEFASRAELRAFIAARAPTADAVLLSAGGS [r16_652_JUSTAS] is above or exactly 5 kJ/mol.
NO

Kindly determine if folding stability dG unfold recorded for SAGGSAGGSAGKTLVFKTKEEALKAIEEEAKKKGYKKVKIEITEVGPDGKVKVKVKIEKKSAGGSAGGSAGG [r17_430_TrROS_Hall] is above or exactly 5 kJ/mol.
YES

Kindly determine if folding stability dG unfold recorded for SMVIEPKPDGTVTVTLPSSLPDLPREEVEAIVREALPPGASLGDSITVSRDPETGEVTVTAPVKFPPELASA [r9_1011_JUSTAS] is above or exactly 5 kJ/mol.
NO

Kindly determine if folding stability dG unfold recorded for SAPIVIPAKAGSPENVLKAIKEAKELASKGKKVYLPILTKDGPIFFEVDPKTKTIKIYNPKTGEKKDLSSAG [r14_423_TrMRF] is above or exactly 5 kJ/mol.
YES

Kindly determine if folding stability dG unfold recorded for SAMKIEIEVPSLEQVKKLEKLLPDKYKISEVKVDPETKKVYVIIELDPSLSPEEVAKLEKEFEEVVKEESAG [r14_306_TrMRF] is above or exactly 5 kJ/mol.
YES

Kindly determine if folding stability dG unfold recorded for SAGGSAGGSAGGMVETGTPSSGSSSPSYVLTTTTLTLLDGTFVPTTTTTTFSDPAEAAAASAGGSAGGSAGG [r7_896_JUSTAS] is above or exactly 5 kJ/mol.
NO

Kindly determine if folding stability dG unfold recorded for SAGGSGQKFEIDRMIHIPLPNGRMLYIMRMKNPIMIMEFNGDNFRPVATVPNDDIPPEIRDLIKKLSAGGSA [r2_133_TrROS] is above or exactly 5 kJ/mol.
YES

----------
Assay: folding stability dG unfold from trypsin proteolysis; higher = more stable
Short version: folding stability dG unfold at least 1 kcal/mol is MET, less is NOT MET.

Some solved entries appear below for comparison.
POLYMER_SEQUENCE: SAGMVVIEVKKDEVPVDPEKALVFEFGDKRYILVDGEKAEEIKDAFPNLDIKIKPVSPEELEKLLKAHSAGG [r19_271_TrMRF]
LABEL_CLASS: MET

POLYMER_SEQUENCE: SAGGSAMVMITIKIKFPGNEVEINMPAEDLDELLSHPELGDNFEITEIEVMPIPPPPVDPEQAEEKSAGGSA [r15_460_TrROS]
LABEL_CLASS: MET

POLYMER_SEQUENCE: SGEPVIVKITFPDGTVLEIEFEGTPEEVKEAVEEEIKEYAKKHGLKPGEFKVEVIKAGDKTKETYTIKVESA [r9_1193_TrMRF]
LABEL_CLASS: MET

Kindly determine if folding stability dG unfold recorded for SAGGDILLVIPAELFFDEDGKPSEEAVKAIEKAAELAEKLNKEGKPVKIEVKVVPLLPPVSPSDPYVFSAGG [r13_731_TrMRF] is above or exactly 1 kcal/mol.
NOT MET

Kindly determine if folding stability dG unfold recorded for SAGGEVKVVKAEVTTLPDGRKLVRLLLEVGGKFYPVLIDVHPDGVRITFPDGKTATIKLEDLKNLTWSAGGS [r16_593_TrMRF] is above or exactly 1 kcal/mol.
MET

Kindly determine if folding stability dG unfold recorded for SAGGSAKPKIKITITRNEDGSLLVRITLPDGREVELSVDDIKALEDAGINLDDVEITEVEVSPEDLSAGGSA [r15_955_TrROS_Hall] is above or exactly 1 kcal/mol.
MET

Kindly determine if folding stability dG unfold recorded for SAGGKNITIDDITFQPQRDNGKPRYYMEVKVELPNGNPIPITMPMDRMQNNGMSPKTFAKWIAKWLLSAGGS [r16_625_TrROS] is above or exactly 1 kcal/mol.
MET

Kindly determine if folding stability dG unfold recorded for SAGGSAGGSAKPKLHIHILTAGPFEELAELLEELAKRIFPPELEIDIHIHYIPKELLHPELGSAGGSAGGSA [r18_498_TrMRF] is above or exactly 1 kcal/mol.
MET

Kindly determine if folding stability dG unfold recorded for SGSTHTVRPPGGLTLTFTFSTDGTTEEAAQALKEALAAALPPDVTVTFDRIDPDKPVTPDEAATVDATVVSA [r9_178_JUSTAS] is above or exactly 1 kcal/mol.
NOT MET

Kindly determine if folding stability dG unfold recorded for SAGGEEKVITKEETITVPPDAGTITISSNEVIKDPNSSYTYYVKESKTVSRDPNSNVYTITLKIKVEKSAGG [r13_574_JUSTAS] is above or exactly 1 kcal/mol.
NOT MET

Kindly determine if folding stability dG unfold recorded for SAGGSAGGSAGMKIEVFPNTIKIYPENGKVLTFEAPDFGEEAIKEIAKAFPNAKIEPVEPSAGGSAGGSAGG [r17_545_TrMRF] is above or exactly 1 kcal/mol.
NOT MET

----------
# folding stability dG unfold per entry
Test: folding stability dG unfold from chymotrypsin proteolysis; higher = more stable

Below, 5 sequences whose answers are already recorded.
POLYMER_SEQUENCE: SAGGSAGGSAPNYIKIRIKFQSDGKRHSMEIFIPDNPKKAKQIAKEMANMGGIEDVEVERYSAGGSAGGSAG [r3_310_TrROS]
RESULT: 0.659 kcal/mol
--
POLYMER_SEQUENCE: SAGNFKIDINPENNMIMIKSPNGWFMFPFTYTRTQPEPDPDDPNEWKQRPRTETHYIMMPANDLKDLLNSAG [r5_234_TrROS]
RESULT: 0.502 kcal/mol
--
POLYMER_SEQUENCE: SAGGSAGGSAIKPGETIPIKIGNFPIKITVYGDWVEITFPNGRKIRFRVAVDDGKLEIDIYFSAGGSAGGSA [r18_172_TrROS]
RESULT: 4.31 kcal/mol
--
POLYMER_SEQUENCE: SAGGSAGGSMDLKDIKILEAYDPGGPVVVTFLNEGKPYTVTIPPENAQILLDLLKEGNIEIKPSAGGSAGGS [r12_604_TrMRF]
RESULT: 1.54 kcal/mol
--
POLYMER_SEQUENCE: SAGNYYRVEVENPSEGKKVTIHIFPNGMINVEHDGGEHWIMIPPDNPDQIEEIASELAPNGYEVDIEPWSAG [r5_791_TrROS]
RESULT: 0.856 kcal/mol

Please look at this sequence and report its folding stability dG unfold: SAGGGMTPTITVTVHYPGETVTITLSSIEEALEYLKKQGLPINPTHSDPNTLVIEFPDGRTVTITLSSAGGS [r8_365_JUSTAS]
4.15 kcal/mol
